Data origin, for the record: patent US20070117808A1

- Tested On: human pancreas Glucokinase (GK) (Homo sapiens)
- Construct: (His)6
- Sequence (P35557 whole entry): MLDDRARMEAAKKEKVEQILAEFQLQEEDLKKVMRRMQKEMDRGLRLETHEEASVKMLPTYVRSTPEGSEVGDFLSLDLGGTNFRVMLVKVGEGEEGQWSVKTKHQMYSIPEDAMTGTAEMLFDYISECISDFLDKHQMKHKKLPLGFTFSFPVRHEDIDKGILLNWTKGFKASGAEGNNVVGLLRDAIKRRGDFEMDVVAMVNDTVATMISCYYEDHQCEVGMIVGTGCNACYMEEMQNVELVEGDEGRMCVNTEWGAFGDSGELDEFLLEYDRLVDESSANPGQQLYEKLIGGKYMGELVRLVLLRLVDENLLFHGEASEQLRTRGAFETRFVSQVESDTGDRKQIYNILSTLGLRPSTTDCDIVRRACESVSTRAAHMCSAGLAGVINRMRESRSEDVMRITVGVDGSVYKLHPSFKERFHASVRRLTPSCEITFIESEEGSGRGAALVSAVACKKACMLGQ
- Run Description: Glucokinase enzyme assay, pancreas GK
- Condition Context: concentration that produces 50% activation above the vehicle control
Assay Metric: EC50 (nM)

In [3]: df
Out[3]:
                                   compound  assay_metric  recorded_measurement
0  O=C(CSC1C2=C(CCCC2)C(=O)N1Cc1ccncc1)Nc1ccccn1 (stereo not shown)          EC50                  1600
1  O=C(CSC1C2=C(CCCC2)C(=O)N1Cc1ccc([N+](=O)[O-])cc1)Nc1ccccn1 (stereo not shown)          EC50                 10900
2  COc1ccc(CN2C(=O)C3=C(CCCC3)C2SCC(=O)Nc2nccs2)cc1OC (stereo not shown)          EC50                  4300

P = O=C(CSC1C2=C(CCCC2)C(=O)N1Cc1cccnc1)Nc1ccccn1 (stereo not shown)
Q = COc1ccc(CN2C(=O)C3=C(CCCC3)C2SCC(=O)Nc2ccc(C(N)=O)cn2)cc1OC (stereo not shown)
Param metric = EC50; output whichever of P , Q has the minimum value. The response must carry the label of the picked entry.
Q
(Q: 210 nM, P: 3600 nM)

I = COC(=O)c1ccc(NC(=O)CSC2C3=C(CCCC3)C(=O)N2Cc2ccc(OC)cc2)nc1 (stereo not shown)
II = O=C(CSC1C2=C(CCCC2)C(=O)N1Cc1ccc(F)cc1)Nc1ccc(C(=O)O)cn1 (stereo not shown)
III = O=C(CSC1C2=C(CCCC2)C(=O)N1Cc1ccc(O)cc1)Nc1nccs1 (stereo not shown)
Form: Sort by [EC50] Order [ ascending ] Please list each label once, in the requested order.
I, II, III
(I: 350 nM, II: 2200 nM, III: 7300 nM)

1 = COC(=O)c1ccc(NC(=O)CSC2C3=C(CCCC3)C(=O)N2Cc2ccc(OC)c(OC)c2)nc1 (stereo not shown)
2 = COc1ccc(CN2C(=O)C3=C(CCCC3)C2SCC(=O)Nc2ccc(C)cn2)cc1OC (stereo not shown)
Lab note: check whether 1 or 2 shows the higher recorded EC50. Bench note: the answer is the label of the chosen record.
2

a = COc1ccc(CN2C(=O)C3=C(CCCC3)C2SCC(=O)Nc2ccccn2)cc1OC (stereo not shown)
b = COc1ccc(CN2C(=O)C3=C(CCC3)C2SCC(=O)Nc2ccccn2)cc1 (stereo not shown)
Which value of EC50 is smaller, the one for a or the one for b ? Write down the label attached to your selection.
a
(a: 450 nM, b: 1100 nM)

====

- Tested On: human liver Glucokinase (GK) (Homo sapiens, UniProt P35557)
- Construct: (His)6; made in house; host or cells: Escherichia coli
- Sequence (P35557 1-466 isoform P35557-2): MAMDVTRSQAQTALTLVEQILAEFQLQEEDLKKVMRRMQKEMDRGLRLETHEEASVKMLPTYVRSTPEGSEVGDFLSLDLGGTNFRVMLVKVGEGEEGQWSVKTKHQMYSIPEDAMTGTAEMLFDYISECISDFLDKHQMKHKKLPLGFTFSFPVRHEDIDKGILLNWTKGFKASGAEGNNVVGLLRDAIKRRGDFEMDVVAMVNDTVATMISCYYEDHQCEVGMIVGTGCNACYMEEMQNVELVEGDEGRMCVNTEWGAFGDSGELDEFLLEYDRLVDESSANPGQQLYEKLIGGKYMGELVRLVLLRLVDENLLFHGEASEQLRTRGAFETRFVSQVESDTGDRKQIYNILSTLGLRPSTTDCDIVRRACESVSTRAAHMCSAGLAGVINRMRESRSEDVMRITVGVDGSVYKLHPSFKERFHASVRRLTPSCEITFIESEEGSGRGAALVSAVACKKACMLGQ
- Run Description: Glucokinase enzyme assay, liver GK
- Assay type: biochemical
- Condition Context: percentage increase in GK activity above vehicle control, compound 50 μM, 12 mM glucose
- Description: An enzymatic Glucokinase (GK) assay using purified recombinant human liver/pancreas enzyme was used to evaluate the effects of potential small molecule modulators. In this assay, GK catalyzes glucose phosphorylation in the presence of ATP. The product of this reaction, glucose-6-phosphate, was then oxidized by an excess of glucose-6-phosphate dehydrogenase to produce gluconate-6-phosphate with concomitant reduction of nicotinamide adenine dinucleotide (NAD). […]
Assay Metric: activation at 50 µM (%)

Check out these entries, answers already filled in.
                                   molecule         assay_metric  recorded_measurement
0  COc1ccc(CN2C(=O)C3=C(CCCC3)C2SCC(=O)Nc2ccc(C)cn2)cc1OC (stereo not shown)  activation at 50 µM                   202
1  COc1ccc([C@H](C)N2C(=O)C3=C(CCCC3)[C@@H]2SCC(=O)Nc2ccccn2)cc1 (single isomer, unassigned)  activation at 50 µM                    21

I = COc1ccc([C@H](C)N2C(=O)C3=C(CCCC3)[C@H]2SCC(=O)Nc2ccccn2)cc1 (single isomer, unassigned)
II = COc1ccc(CN2C(=O)C3=C(CCCC3)C2SCC(=O)Nc2ccccn2)cc1 (stereo not shown)
Compare reported activation at 50 µM values for I and II . Which is lower? To answer, give the label that identifies your chosen option.
I
(I: 0%, II: 250%)

====

- Tested On: human liver Glucokinase (GK) (Homo sapiens, UniProt P35557)
- Construct: (His)6
- Run Description: Glucokinase enzyme assay, liver GK
- Condition Context: concentration that produces 50% activation above the vehicle control
Assay Metric: EC50 (nM)

Check out these entries, answers already filled in.
In [3]: df
Out[3]:
                                   compound                                 tested_on  assay_metric  recorded_measurement
0  COc1ccc(CN2C(=O)C3=C(CCCC3)C2SCC(=O)Nc2ccccn2)cc1OC (stereo not shown) [Compound 10]  human liver Glucokinase (GK) (Homo sapiens, UniProt P35557)          EC50                   390
1  COc1ccc(CN2C(=O)C3=C(CCCC3)C2SCC(=O)Nc2ccccn2)cc1 (stereo not shown) [Compound 3]  human liver Glucokinase (GK) (Homo sapiens, UniProt P35557)          EC50                   390

I = COc1ccc(CN2C(=O)C3=C(CCCC3)C2SCC(=O)Nc2ccc(C(=O)O)cn2)cc1 (stereo not shown) [Compound 8]
II = COC(=O)c1ccc(NC(=O)CSC2C3=C(CCCC3)C(=O)N2Cc2ccc(OC)c(OC)c2)nc1 (stereo not shown) [Compound 9]
III = COc1ccc(CN2C(=O)C3=C(CCCC3)C2OCC(=O)Nc2ccccn2)cc1 (stereo not shown) [Compound 4]
IV = COc1ccc(CN2C(=O)C3=C(CCCC3)C2SCC(=O)Nc2ccc(C)cn2)cc1OC (stereo not shown) [Compound 11]
V = COc1ccc(CN2C(=O)C3=C(CCCC3)C2SCC(=O)Nc2nccs2)cc1OC (stereo not shown) [Compound 12]
Could you please sort these 5 entries by EC50 from high to low? Could you list the labels in the order requested?
III, V, I, IV, II

====

- Tested On: human liver Glucokinase (GK) (Homo sapiens)
- Construct: (His)6; made in house; host or cells: Escherichia coli
- Run Description: Glucokinase enzyme assay, liver GK
- Assay type: biochemical
- Condition Context: concentration that produces 100% activation above the vehicle control
Assay Metric: EC100% (µM)

Some solved cases for reference:
                                   molecule  unit_spec  recorded_measurement
0  COc1ccc(CN2C(=O)C3=C(CCCC3)C2SCC(=O)Nc2ccccn2)cc1OC (centres unmarked)         µM                  1.35
1  COc1ccc(CN2C(=O)C3=C(CCCC3)C2SCC(=O)Nc2ccc(C)cn2)cc1OC (centres unmarked)         µM                   3.5
2  COc1ccc(CN2C(=O)C3=C(CCCC3)C2SCC(=O)Nc2ccc(C(=O)O)cn2)cc1 (centres unmarked)         µM                   2.5
3  COC(=O)c1ccc(NC(=O)CSC2C3=C(CCCC3)C(=O)N2Cc2ccc(OC(C)C)cc2)nc1 (centres unmarked)         µM                  5.54
4  COc1ccc(CN2C(=O)C3=C(CCCC3)C2SCC(=O)Nc2ccccn2)cc1 (centres unmarked)         µM                     1
5  COC(=O)c1ccc(NC(=O)CSC2C3=C(CCCC3)C(=O)N2Cc2ccc(OC)c(OC)c2)nc1 (centres unmarked)         µM                  1.43

P = COc1ccc(CN2C(=O)C3=C(CCCC3)C2OCC(=O)Nc2ccccn2)cc1 (centres unmarked)
Q = COc1ccc(CN2C(=O)C3=C(CCCC3)C2SCC(=O)Nc2nccs2)cc1OC (centres unmarked)
Between these two entries, P and Q , state which has the higher EC100%. Identify your selection by its label.
P
(P: 31.4 µM, Q: 10.3 µM)

====

- Tested On: human liver Glucokinase (GK) (Homo sapiens, UniProt P35557)
- Construct: (His)6; made in house; host or cells: Escherichia coli
- Run Description: Glucokinase enzyme assay, liver GK
- Assay type: biochemical
- Condition Context: percentage increase in GK activity above vehicle control, compound 50 μM, 12 mM glucose
Assay Metric: activation at 50 µM (%)

Example molecules with recorded activation at 50 µM:
>>> print(df.to_string())
                                   molecule                                 tested_on         assay_metric  recorded_measurement
0  COc1ccc(CN2C(=O)C3=C(CCCC3)C2SCC(=O)Nc2ccccn2)cc1OC (stereo not shown)  human liver Glucokinase (GK) (Homo sapiens, UniProt P35557)  activation at 50 µM                   259
1  COc1ccc(CN2C(=O)C3=C(CCCC3)C2SCC(=O)Nc2nccs2)cc1OC (stereo not shown)  human liver Glucokinase (GK) (Homo sapiens, UniProt P35557)  activation at 50 µM                   196

I = COC(=O)c1ccc(NC(=O)CSC2C3=C(CCCC3)C(=O)N2Cc2ccc(OC)c(OC)c2)nc1 (stereo not shown)
II = COc1ccc(CN2C(=O)C3=C(CCCC3)C2OCC(=O)Nc2ccccn2)cc1 (stereo not shown)
Higher activation at 50 µM: I or II ? Which one? Tell me its label.
I
